# Tested on: blood coagulation (aPTT)
# assayProcedure: Activated partial thromboplastin time test
# Format: biochemical
# appliedConditions: 100 μM; without conjugate 30.5
Peptide text beside a SMILES is read from it. * marks the point of attachment. Tos = Cc1ccc(S(=O)(=O)*)cc1; CH2Cl = ClC*
propertyMeasured: aPTT (s)
Numbers only, in s.

// known answers, use as guide
{"compound": "Cc1ccc(S(=O)(=O)N[C@@H](C)C(=O)N[C@H](C(=O)N[C@@H](CC(C)C)C(=O)N[C@@H](CC(=O)O)C(=O)N2CCC[C@H]2C(=O)N[C@@H](CCCNC(=N)N)C(=O)CCl)[C@@H](C)O)cc1 [6AA, tosyl-ATLDPR-CK] (Tos-ATLDPR-CH2Cl)", "propertyMeasured": "aPTT", "measurementUnits": "s", "valueObserved": 67.6}
{"compound": "Cc1ccc(S(=O)(=O)N[C@@H](CC(N)=O)C(=O)N[C@@H](C)C(=O)N[C@H](C(=O)N[C@@H](CC(C)C)C(=O)N[C@@H](CC(=O)O)C(=O)N2CCC[C@H]2C(=O)N[C@@H](CCCNC(=N)N)C(=O)CCl)[C@@H](C)O)cc1 [7AA, tosyl-NATLDPR-CK] (Tos-NATLDPR-CH2Cl)", "propertyMeasured": "aPTT", "measurementUnits": "s", "valueObserved": 85.2}
{"compound": "Cc1ccc(S(=O)(=O)N[C@@H](CC(C)C)C(=O)N[C@@H](CC(=O)O)C(=O)N2CCC[C@H]2C(=O)N[C@@H](CCCNC(=N)N)C(=O)CCl)cc1 [4AA, tosyl-LDPR-CK] (Tos-LDPR-CH2Cl)", "propertyMeasured": "aPTT", "measurementUnits": "s", "valueObserved": 42.6}
{"compound": "Cc1ccc(S(=O)(=O)N[C@H](C(=O)N[C@@H](CC(C)C)C(=O)N[C@@H](CC(=O)O)C(=O)N2CCC[C@H]2C(=O)N[C@@H](CCCNC(=N)N)C(=O)CCl)[C@@H](C)O)cc1 [5AA, tosyl-TLDPR-CK] (Tos-TLDPR-CH2Cl)", "propertyMeasured": "aPTT", "measurementUnits": "s", "valueObserved": 63.9}

Please find the next compound below.
Challenge: Give recorded aPTT. Cc1ccc(S(=O)(=O)N[C@@H](CC(=O)O)C(=O)N2CCC[C@H]2C(=O)N[C@@H](CCCNC(=N)N)C(=O)CCl)cc1 [3AA, tosyl-DPR-CK] (Tos-Asp-Pro-Arg-CH2Cl)
Response given: 150

====

I'd appreciate it if you could supply aPC values for the items below.
# studySystem: Protein C (Homo sapiens)
# Sequence (P04070 212-461 limits assumed): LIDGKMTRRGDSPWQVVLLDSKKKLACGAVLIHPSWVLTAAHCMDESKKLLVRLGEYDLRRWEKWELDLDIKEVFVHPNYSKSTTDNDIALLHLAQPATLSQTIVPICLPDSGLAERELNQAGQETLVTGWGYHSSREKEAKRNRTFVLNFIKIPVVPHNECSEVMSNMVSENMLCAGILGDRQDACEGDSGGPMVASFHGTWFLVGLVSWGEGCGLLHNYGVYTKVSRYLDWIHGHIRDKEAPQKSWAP
# Sequence (P04070 43-197 partner limits assumed): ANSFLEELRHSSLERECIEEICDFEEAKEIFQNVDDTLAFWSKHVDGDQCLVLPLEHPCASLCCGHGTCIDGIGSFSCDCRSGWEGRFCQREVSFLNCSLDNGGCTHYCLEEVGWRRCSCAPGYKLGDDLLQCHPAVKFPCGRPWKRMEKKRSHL
# assayProcedure: Protein C activity test
# Format: biochemical
# appliedConditions: 100 μM; without conjugate 109
Peptide text beside a SMILES is read from it. * marks the point of attachment. Tos = Cc1ccc(S(=O)(=O)*)cc1; CH2Cl = ClC*
Answers are plain numbers.

Here's what some known entries look like.
{"compound": "Cc1ccc(S(=O)(=O)N[C@@H](CC(N)=O)C(=O)N[C@@H](C)C(=O)N[C@H](C(=O)N[C@@H](CC(C)C)C(=O)N[C@@H](CC(=O)O)C(=O)N2CCC[C@H]2C(=O)N[C@@H](CCCNC(=N)N)C(=O)CCl)[C@@H](C)O)cc1 [7AA, tosyl-NATLDPR-CK] (Tos-NATLDPR-CH2Cl)", "propertyMeasured": "aPC", "valueObserved": 25}
{"compound": "Cc1ccc(S(=O)(=O)N[C@@H](C)C(=O)N[C@H](C(=O)N[C@@H](CC(C)C)C(=O)N[C@@H](CC(=O)O)C(=O)N2CCC[C@H]2C(=O)N[C@@H](CCCNC(=N)N)C(=O)CCl)[C@@H](C)O)cc1 [6AA, tosyl-ATLDPR-CK] (Tos-ATLDPR-CH2Cl)", "propertyMeasured": "aPC", "valueObserved": 11}

Kindly review the next compound as well.
Challenge: Quote Protein C (Homo sapiens) aPC for entry Cc1ccc(S(=O)(=O)N[C@H](C(=O)N[C@@H](CC(C)C)C(=O)N[C@@H](CC(=O)O)C(=O)N2CCC[C@H]2C(=O)N[C@@H](CCCNC(=N)N)C(=O)CCl)[C@@H](C)O)cc1 [5AA, tosyl-TLDPR-CK] (Tos-TLDPR-CH2Cl) .
Response given: 20

====

Provide the recorded Potency score in aPTT test for the entries that follow.
# Test system: blood coagulation (aPTT)
# assayProcedure: Activated partial thromboplastin time test
# Format: biochemical
# appliedConditions: 100 μM; most potent (1) to least potent (5)
Peptide text beside a SMILES is read from it. * marks the point of attachment. Tos = Cc1ccc(S(=O)(=O)*)cc1; CH2Cl = ClC*
Give bare numbers.

Hey, quick one: what's Potency score in aPTT test for each of these?
1. Cc1ccc(S(=O)(=O)N[C@H](C(=O)N[C@@H](CC(C)C)C(=O)N[C@@H](CC(=O)O)C(=O)N2CCC[C@H]2C(=O)N[C@@H](CCCNC(=N)N)C(=O)CCl)[C@@H](C)O)cc1 [5AA, tosyl-TLDPR-CK] (Tos-TLDPR-CH2Cl)
2. Cc1ccc(S(=O)(=O)N[C@@H](CC(=O)O)C(=O)N2CCC[C@H]2C(=O)N[C@@H](CCCNC(=N)N)C(=O)CCl)cc1 [3AA, tosyl-DPR-CK] (Tos-Asp-Pro-Arg-CH2Cl)
3. Cc1ccc(S(=O)(=O)N[C@@H](C)C(=O)N[C@H](C(=O)N[C@@H](CC(C)C)C(=O)N[C@@H](CC(=O)O)C(=O)N2CCC[C@H]2C(=O)N[C@@H](CCCNC(=N)N)C(=O)CCl)[C@@H](C)O)cc1 [6AA, tosyl-ATLDPR-CK] (Tos-ATLDPR-CH2Cl)
4. Cc1ccc(S(=O)(=O)N[C@@H](CC(N)=O)C(=O)N[C@@H](C)C(=O)N[C@H](C(=O)N[C@@H](CC(C)C)C(=O)N[C@@H](CC(=O)O)C(=O)N2CCC[C@H]2C(=O)N[C@@H](CCCNC(=N)N)C(=O)CCl)[C@@H](C)O)cc1 [7AA, tosyl-NATLDPR-CK] (Tos-NATLDPR-CH2Cl)
5. Cc1ccc(S(=O)(=O)N[C@@H](CC(C)C)C(=O)N[C@@H](CC(=O)O)C(=O)N2CCC[C@H]2C(=O)N[C@@H](CCCNC(=N)N)C(=O)CCl)cc1 [4AA, tosyl-LDPR-CK] (Tos-LDPR-CH2Cl)

Response given:
1: 4; 2: 1; 3: 3; 4: 2; 5: 5
